Origin of values: the kinase profiling compilation of Christmann-Franck et al. (2016)

- subjectOfTest: STK35 (human)
- protocolNotes: KINOMEscan competition binding
- runParameters: compound 10.0 µM
endpointName: kinase still bound, per cent of control (%)
Give your result in % as a bare value.

# smilesText, kinase still bound, per cent of control / %
rows = [
    ("C=CC(=O)Nc1cccc(Oc2nc(Nc3ccc(N4CCN(C)CC4)cc3OC)ncc2Cl)c1", 100),
]

[ask] Kindly indicate its recorded kinase still bound, per cent of control. Item: CCN1CCN(Cc2ccc(Nc3ncc4c(n3)N(C)c3ccccc3C(=O)N4C)cc2C(F)(F)F)CC1
[reply] 76

[ask] Item C=CC(=O)Nc1cc(NC(=O)c2ccc(C)c(NC(=O)c3ccno3)c2)cc(C(F)(F)F)c1 : provide kinase still bound, per cent of control
[reply] 100

[ask] For the compound OCCCNc1cc(-c2ccnc(Nc3cccc(Cl)c3)n2)ccn1 , give its reported kinase still bound, per cent of control.
[reply] 100
